The following binders are listed with their measured pKd values.
# System under test: T1, human SIRPβ isoform 1 (human, UniProt O00241 30-148)
# T1 construct: also called Beta; Human SIRPb
# T1 sequence (O00241 30-148 limits assumed): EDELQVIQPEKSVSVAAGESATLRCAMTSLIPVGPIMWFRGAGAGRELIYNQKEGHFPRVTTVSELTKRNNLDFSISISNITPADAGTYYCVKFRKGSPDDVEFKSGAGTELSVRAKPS
# Assay protocol: SPR, antibody on GLC chip
pKd: −log10 of the molar value.

>  <Binder>
antibody 135 variant, light chain wt / heavy chain Mut_V34M (antibody, V domains shown) VH: EVQLVESGGGVVQPGGSLRLSCAASGFSFSIYAMSWVRQAPGKGLEWVSTIGADDTYYADSVKGRFTISRDNSKNTLYLQMNSLRAEDTAVYYCAKDSTVGWSGDFFDYWGQGTLVTVSS VL: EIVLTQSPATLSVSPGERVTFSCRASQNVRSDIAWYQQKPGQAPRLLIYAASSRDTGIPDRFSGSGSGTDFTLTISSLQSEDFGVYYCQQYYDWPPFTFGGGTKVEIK

>  <pKd>
9.80

$$$$
>  <Binder>
antibody 136 variant, light chain wt / heavy chain Mut (antibody, V domains shown) VH: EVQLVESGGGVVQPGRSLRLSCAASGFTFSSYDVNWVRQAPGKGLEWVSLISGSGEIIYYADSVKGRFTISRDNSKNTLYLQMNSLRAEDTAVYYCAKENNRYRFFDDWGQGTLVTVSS VL: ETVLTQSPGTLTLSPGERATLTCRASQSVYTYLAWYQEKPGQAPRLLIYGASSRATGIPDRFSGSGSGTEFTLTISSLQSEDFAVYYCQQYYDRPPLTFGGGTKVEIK

>  <pKd>
8.45

$$$$
>  <Binder>
antibody 119 variant, light chain Mut / heavy chain Mut_V34M (antibody, V domains shown) VH: EVQLLESGGGVVQPGGSLRLSCAASGFSFSNFAMTWVRQAPGKGLEWVSTIGSGDTYYADSVKGRFTISRDNSKNTLYLQMNSLRAEDTAVYYCAKDSTVSWSGDFFDYWGQGTLVTVSS VL: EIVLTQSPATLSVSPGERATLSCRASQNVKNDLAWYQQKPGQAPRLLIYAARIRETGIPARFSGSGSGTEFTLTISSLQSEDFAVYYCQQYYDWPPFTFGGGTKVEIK

>  <pKd>
9.47

$$$$
>  <Binder>
antibody 136 variant, light chain Mut_I2T / heavy chain Mut_V34M (antibody, V domains shown) VH: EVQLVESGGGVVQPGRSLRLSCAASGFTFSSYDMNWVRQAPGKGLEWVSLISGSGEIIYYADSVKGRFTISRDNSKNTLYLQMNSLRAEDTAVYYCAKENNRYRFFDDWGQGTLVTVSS VL: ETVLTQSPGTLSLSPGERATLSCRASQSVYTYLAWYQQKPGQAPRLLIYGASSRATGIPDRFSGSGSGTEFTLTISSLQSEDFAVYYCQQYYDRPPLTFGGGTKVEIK

>  <pKd>
8.65

$$$$
>  <Binder>
antibody 136 variant, light chain Mut_I2T / heavy chain Mut (antibody, V domains shown) VH: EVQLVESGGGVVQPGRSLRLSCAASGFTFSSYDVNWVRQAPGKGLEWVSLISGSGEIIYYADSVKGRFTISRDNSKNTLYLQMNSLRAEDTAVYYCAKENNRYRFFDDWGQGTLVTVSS VL: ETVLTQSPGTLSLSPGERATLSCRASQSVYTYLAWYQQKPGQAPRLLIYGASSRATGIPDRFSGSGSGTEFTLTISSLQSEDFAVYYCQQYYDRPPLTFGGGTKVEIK

>  <pKd>
8.50

$$$$
